Test system: 885724-159-R-J1-PDC complex spheroid viability;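 further: spheroids exposed to agents for seven days before readout; percent of vehicle control viability where 100% = DMSO wells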
method: Anticancer human tumor 885724-159-R-J1-PDC patient-derived pancreatic adenocarcinoma cell line growth inhibition [GQUAD]
measurement-conditions: second compound 10 µM; first compound 3.16 µM; hits give low values
compounds and their reported viability, T/C

{"compound": "O=C(c1cc(Cc2n[nH]c(=O)c3ccccc23)ccc1F)N1CCN(C(=O)C2CC2)CC1 + CN(C)c1ccc(Nc2c3ccc(NC(=O)CCN4CCCC4)cc3nc3cc(NC(=O)CCN4CCCC4)ccc23)cc1", "u": "%", "viability, T/C": 90.1}
{"compound": "CC1COCCN1c1cc(C2(O)CC3CCC(C2)O3)c2cnn(-c3ccn[nH]3)c2n1 (centres undefined) + Cc1cnc(CNC(=O)c2c(=O)c3ccc(N4CCCN(C)CC4)nc3n3c2sc2ccccc23)cn1", "u": "%", "viability, T/C": 19.1}
{"compound": "C#Cc1c(F)ccc2cc(O)cc(-c3ncc4c(N5CC6CCC(C5)N6)nc(OCC56CCCN5CC(F)C6)nc4c3F)c12 (centres undefined) + Cc1[nH]c2ccc(F)cc2c1-c1nc2c3cccnc3c3ncccc3c2[nH]1", "u": "%", "viability, T/C": 63.2}
{"compound": "CC1COCCN1c1cc(-c2ccnn2C)c2ccnc(-c3ccn[nH]3)c2n1 (centres undefined) + CN(C)c1ccc(Nc2c3ccc(NC(=O)CCN4CCCC4)cc3nc3cc(NC(=O)CCN4CCCC4)ccc23)cc1", "u": "%", "viability, T/C": 39}
{"compound": "O=C(c1cc(Cc2n[nH]c(=O)c3ccccc23)ccc1F)N1CCN(C(=O)C2CC2)CC1 + Cc1cnc(CNC(=O)c2c(=O)c3ccc(N4CCCN(C)CC4)nc3n3c2sc2ccccc23)cn1", "u": "%", "viability, T/C": 64.8}
{"compound": "Nc1ccn(C2OC(CO)C(O)C2(F)F)c(=O)n1 (centres undefined) + CN(C)c1ccc(Nc2c3ccc(NC(=O)CCN4CCCC4)cc3nc3cc(NC(=O)CCN4CCCC4)ccc23)cc1", "u": "%", "viability, T/C": 52.1}
{"compound": "CC(C)(O)C1CCC(Nc2ccc3ncc(-c4cccc(C(F)(F)F)c4)n3n2)CC1 (centres undefined) + CN(C)c1ccc(Nc2c3ccc(NC(=O)CCN4CCCC4)cc3nc3cc(NC(=O)CCN4CCCC4)ccc23)cc1", "u": "%", "viability, T/C": 20.6}
{"compound": "Cc1cccc(N(C)C(=O)C2C(O)CCN2c2nc(C)cc(C(F)(F)F)c2C#N)c1 (centres undefined) + CN(C)c1ccc(Nc2c3ccc(NC(=O)CCN4CCCC4)cc3nc3cc(NC(=O)CCN4CCCC4)ccc23)cc1", "u": "%", "viability, T/C": 78.2}
{"compound": "COc1ccc([C@@H](O)c2cc(-c3ncnc4cc(N5CCOCC5)ccc34)c(F)cc2Cl)nn1 + Cc1[nH]c2ccc(F)cc2c1-c1nc2c3cccnc3c3ncccc3c2[nH]1", "u": "%", "viability, T/C": 52.9}
{"compound": "CC(=O)O[C@H]1C(=O)[C@@]2(C)[C@H]([C@H](OC(=O)c3ccccc3)[C@]3(O)C[C@H](OC(=O)[C@H](O)[C@@H](NC(=O)c4ccccc4)c4ccccc4)C(C)=C1C3(C)C)[C@]1(OC(C)=O)CO[C@@H]1C[C@@H]2O + CN(C)c1ccc(Nc2c3ccc(NC(=O)CCN4CCCC4)cc3nc3cc(NC(=O)CCN4CCCC4)ccc23)cc1", "u": "%", "viability, T/C": 69.6}
{"compound": "O=C(NO)c1cnc(N2CCN(S(=O)(=O)c3ccc4ccccc4c3)CC2)nc1 + CN(C)c1ccc(Nc2c3ccc(NC(=O)CCN4CCCC4)cc3nc3cc(NC(=O)CCN4CCCC4)ccc23)cc1", "u": "%", "viability, T/C": 1.36}
{"compound": "O=C(NO)c1cnc(N2CCN(S(=O)(=O)c3ccc4ccccc4c3)CC2)nc1 + Cc1[nH]c2ccc(F)cc2c1-c1nc2c3cccnc3c3ncccc3c2[nH]1", "u": "%", "viability, T/C": 3.66}
{"compound": "CC1COCCN1c1cc(-c2ccnn2C)c2ccnc(-c3ccn[nH]3)c2n1 (centres undefined) + Cc1cnc(CNC(=O)c2c(=O)c3ccc(N4CCCN(C)CC4)nc3n3c2sc2ccccc23)cn1", "u": "%", "viability, T/C": 30.6}
{"compound": "C=CCn1c(=O)c2cnc(Nc3ccc(N4CCN(C)CC4)cc3)nc2n1-c1cccc(C(C)(C)O)n1 + Cc1[nH]c2ccc(F)cc2c1-c1nc2c3cccnc3c3ncccc3c2[nH]1", "u": "%", "viability, T/C": 50}
{"compound": "C#Cc1c(F)ccc2cc(O)cc(-c3ncc4c(N5CC6CCC(C5)N6)nc(OCC56CCCN5CC(F)C6)nc4c3F)c12 (centres undefined) + CN(C)c1ccc(Nc2c3ccc(NC(=O)CCN4CCCC4)cc3nc3cc(NC(=O)CCN4CCCC4)ccc23)cc1", "u": "%", "viability, T/C": 40.2}
{"compound": "O=c1[nH]cc(F)c(=O)[nH]1 + Cc1cnc(CNC(=O)c2c(=O)c3ccc(N4CCCN(C)CC4)nc3n3c2sc2ccccc23)cn1", "u": "%", "viability, T/C": 77.8}
{"compound": "COc1ncnc(C2CC2)c1-c1ncc2cnn(Cc3ccc(-c4nc(C(F)(F)F)cn4C(C)C)cc3)c2n1 + Cc1cnc(CNC(=O)c2c(=O)c3ccc(N4CCCN(C)CC4)nc3n3c2sc2ccccc23)cn1", "u": "%", "viability, T/C": 76.7}
{"compound": "CC(=O)O[C@H]1C(=O)[C@@]2(C)[C@H]([C@H](OC(=O)c3ccccc3)[C@]3(O)C[C@H](OC(=O)[C@H](O)[C@@H](NC(=O)c4ccccc4)c4ccccc4)C(C)=C1C3(C)C)[C@]1(OC(C)=O)CO[C@@H]1C[C@@H]2O + Cc1cnc(CNC(=O)c2c(=O)c3ccc(N4CCCN(C)CC4)nc3n3c2sc2ccccc23)cn1", "u": "%", "viability, T/C": 74.1}
{"compound": "CC(=O)O[C@H]1C(=O)[C@@]2(C)[C@H]([C@H](OC(=O)c3ccccc3)[C@]3(O)C[C@H](OC(=O)[C@H](O)[C@@H](NC(=O)c4ccccc4)c4ccccc4)C(C)=C1C3(C)C)[C@]1(OC(C)=O)CO[C@@H]1C[C@@H]2O + Cc1[nH]c2ccc(F)cc2c1-c1nc2c3cccnc3c3ncccc3c2[nH]1", "u": "%", "viability, T/C": 68.5}

Value source: PubChem BioAssay AID2060502
